# experimental-conditions: 303.15 K; 101.33 kPa; Liquid; Vibrating tube method
property-measured: mass density (kg/m3)

CCCCC(CC)CCC(=O)[O-].CCCCCCCC[N+](C)(CCCCCCCC)CCCCCCCC [methyltrioctylammonium 4-ethyloctanoate]	887.1
CCCCCCCC/C=C\CCCCCCCC(=O)[O-].CCCCCC[N+](CCCCCC)(CCCCCC)CCCCCC [tetrahexylammonium oleate]	883.9
CCCCCCCC/C=C\CCCCCCCC(=O)[O-].CCCCCCCC[N+](CCCCCCCC)(CCCCCCCC)CCCCCCCC [tetraoctylammonium oleate]	872.3
CCCCCCCC/C=C\CCCCCCCC(=O)[O-].CCCCCCCC[N+](C)(CCCCCCCC)CCCCCCCC [methyltrioctylammonium oleate]	884.5

====

# experimental-conditions: 353.15 K; 101.33 kPa; Liquid; Concentric cylinders viscometry
property-measured: viscosity (mPa·s)

As a guide, the following entries are already answered.
CCCCCCCC/C=C\CCCCCCCC(=O)[O-].CCCCCC[N+](CCCCCC)(CCCCCC)CCCCCC [tetrahexylammonium oleate]	67.5
CCCCC(CC)CCC(=O)[O-].CCCCCCCC[N+](C)(CCCCCCCC)CCCCCCCC [methyltrioctylammonium 4-ethyloctanoate]	116.1

P: CCCCCCCC/C=C\CCCCCCCC(=O)[O-].CCCCCCCC[N+](CCCCCCCC)(CCCCCCCC)CCCCCCCC [tetraoctylammonium oleate]
Q: CCCCCCCC/C=C\CCCCCCCC(=O)[O-].CCCCCCCC[N+](C)(CCCCCCCC)CCCCCCCC [methyltrioctylammonium oleate]
Q: Between item P and item Q , which reported viscosity is smaller? Record your answer as the label of the chosen record.
Ans: P
